From: PubChem BioAssay AID1963973

# Test system: 883617-216-R-J1-PDC tumor spheroids, viability
# METHOD_SUMMARY: Anticancer human tumor 883617-216-R-J1-PDC patient-derived bladder carcinoma cell line growth inhibition [PI3K]; active = viability on the fitted dose curve at most 10% of control; inactive = the rest
# MEASUREMENT_PARAMETERS: second compound 1 µM; first compound 0.0316 µM; spheroids with HUVEC and MSC
Outcomes: yes (1) for active, no (0) for inactive

INSERT INTO assay_data (molecule, qualitative_label) VALUES
  ('Cn1ncnc1[C@H]1c2n[nH]c(=O)c3cc(F)cc(c23)N[C@@H]1c1ccc(F)cc1 + Cc1nc(NC(=O)N2CCCC2C(N)=O)sc1-c1ccnc(C(C)(C)C(F)(F)F)c1', 'no (0)'),
  ('CC1(C)CCC(CN2CCN(c3ccc(C(=O)NS(=O)(=O)c4ccc(NCC5CCOCC5)c([N+](=O)[O-])c4)c(Oc4cnc5[nH]ccc5c4)c3)CC2)=C(c2ccc(Cl)cc2)C1 + CC(Nc1ncnc2nc[nH]c12)c1cc2cccc(Cl)c2c(=O)n1-c1ccccc1', 'no (0)'),
  ('CC(C)n1nc(-c2ccc3oc(N)nc3c2)c2c(N)ncnc21 + CC(Nc1ccc2c(c1)OCCn1cc(N3C(=O)OCC3C(F)F)nc1-2)C(N)=O', 'yes (1)'),
  ('C#Cc1c(F)ccc2cc(O)cc(-c3ncc4c(N5CC6CCC(C5)N6)nc(OCC56CCCN5CC(F)C6)nc4c3F)c12 (stereo unspecified) + CC(Nc1ccc2c(c1)OCCn1cc(N3C(=O)OCC3C(F)F)nc1-2)C(N)=O', 'no (0)'),
  ('CCN1CCN(Cc2ccc(Nc3ncc(F)c(-c4cc(F)c5nc(C)n(C(C)C)c5c4)n3)nc2)CC1 + Cc1nc(NC(=O)N2CCCC2C(N)=O)sc1-c1ccnc(C(C)(C)C(F)(F)F)c1', 'no (0)'),
  ('Cn1ncnc1[C@H]1c2n[nH]c(=O)c3cc(F)cc(c23)N[C@@H]1c1ccc(F)cc1 + CC(Nc1ncnc2nc[nH]c12)c1cc2cccc(Cl)c2c(=O)n1-c1ccccc1', 'no (0)'),
  ('CC(C)NCC(C(=O)N1CCN(c2ncnc3c2C(C)CC3O)CC1)c1ccc(Cl)cc1 (stereo unspecified) + Cc1nc(NC(=O)N2CCCC2C(N)=O)sc1-c1ccnc(C(C)(C)C(F)(F)F)c1', 'no (0)'),
  ('C[C@@H](NC(=O)c1ncnc(N)c1Cl)c1ncc(C(=O)Nc2cc(C(F)(F)F)c(Cl)cn2)s1 + Cc1nc(NC(=O)N2CCCC2C(N)=O)sc1-c1ccnc(C(C)(C)C(F)(F)F)c1', 'no (0)'),
  ('CC(C)n1nc(-c2ccc3oc(N)nc3c2)c2c(N)ncnc21 + CC(Nc1ncnc2nc[nH]c12)c1cc2cccc(Cl)c2c(=O)n1-c1ccccc1', 'no (0)'),
  ('CNC(=O)c1ccc(N2C(=S)N(c3ccc(C#N)c(C(F)(F)F)c3)C(=O)C2(C)C)cc1F + CC(Nc1ncnc2nc[nH]c12)c1cc2cccc(Cl)c2c(=O)n1-c1ccccc1', 'no (0)'),
  ('CCCS(=O)(=O)Nc1ccc(F)c(C(=O)c2c[nH]c3ncc(-c4ccc(Cl)cc4)cc23)c1F + COc1c(OCCCN2CCOCC2)ccc2c3n(c(=NC(=O)c4cnc(N)nc4)nc12)CCN3', 'yes (1)');

* * *

# System: 883617-216-R-J1-PDC tumor spheroids, viability
# METHOD_SUMMARY: Anticancer human tumor 883617-216-R-J1-PDC cell line growth inhibition [PI3K]; active means viability on the fitted dose curve at most 10% of control; inactive means the rest;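 also: spheroids exposed to agents for 7 days before the viability read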
# MEASUREMENT_PARAMETERS: second compound 10 µM; first compound 0.0316 µM; spheroids with HUVEC and MSC
Possible outcomes: Yes for active, No for inactive

INSERT INTO results (compound, qualitative_label) VALUES
  ('CC(=O)c1c(C)c2cnc(Nc3ccc(N4CCNCC4)cn3)nc2n(C2CCCC2)c1=O + CC(Nc1ncnc2nc[nH]c12)c1cc2cccc(Cl)c2c(=O)n1-c1ccccc1', 'No'),
  ('Cn1ncnc1[C@H]1c2n[nH]c(=O)c3cc(F)cc(c23)N[C@@H]1c1ccc(F)cc1 + CC(Nc1ncnc2nc[nH]c12)c1cc2cccc(Cl)c2c(=O)n1-c1ccccc1', 'No'),
  ('CC(Cn1ccc(-c2ccc(C#N)c(Cl)c2)n1)NC(=O)c1cc(C(C)O)[nH]n1 (stereo unspecified) + Cc1nc(NC(=O)N2CCCC2C(N)=O)sc1-c1ccnc(C(C)(C)C(F)(F)F)c1', 'Yes'),
  ('C#Cc1c(F)ccc2cc(O)cc(-c3ncc4c(N5CC6CCC(C5)N6)nc(OCC56CCCN5CC(F)C6)nc4c3F)c12 (stereo unspecified) + Cc1nc(NC(=O)N2CCCC2C(N)=O)sc1-c1ccnc(C(C)(C)C(F)(F)F)c1', 'Yes'),
  ('CC(Cn1ccc(-c2ccc(C#N)c(Cl)c2)n1)NC(=O)c1cc(C(C)O)[nH]n1 (stereo unspecified) + CC(Nc1ncnc2nc[nH]c12)c1cc2cccc(Cl)c2c(=O)n1-c1ccccc1', 'No'),
  ('CC(C)n1nc(-c2ccc3oc(N)nc3c2)c2c(N)ncnc21 + Cc1nc(NC(=O)N2CCCC2C(N)=O)sc1-c1ccnc(C(C)(C)C(F)(F)F)c1', 'Yes');

* * *

Known viability, T/C of a selection of molecules
# System: 883617-216-R-J1-PDC tumor spheroids, viability
# METHOD_SUMMARY: Anticancer human tumor 883617-216-R-J1-PDC cell line growth inhibition [PI3K];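 also: spheroids exposed to agents for 7 days before the viability read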
# MEASUREMENT_PARAMETERS: second compound 0.00316 µM; first compound 0.316 µM; stronger effect = lower value; spheroids with HUVEC and MSC
READOUT_TYPE: viability, T/C (%)

INSERT INTO measurements (molecule, tested_on, recorded_measurement) VALUES
  ('C=CC(=O)N1CCN(c2nc(=O)n(-c3c(C)ccnc3C(C)C)c3nc(-c4c(O)cccc4F)c(F)cc23)C(C)C1 (centres undefined) + CC(Nc1ccc2c(c1)OCCn1cc(N3C(=O)OCC3C(F)F)nc1-2)C(N)=O', '883617-216-R-J1-PDC tumor spheroids, viability', 52.5),
  ('C[C@@H](NC(=O)c1ncnc(N)c1Cl)c1ncc(C(=O)Nc2cc(C(F)(F)F)c(Cl)cn2)s1 + COc1c(OCCCN2CCOCC2)ccc2c3n(c(=NC(=O)c4cnc(N)nc4)nc12)CCN3', '883617-216-R-J1-PDC tumor spheroids, viability', 86.1),
  ('C#Cc1c(F)ccc2cc(O)cc(-c3ncc4c(N5CC6CCC(C5)N6)nc(OCC56CCCN5CC(F)C6)nc4c3F)c12 (centres undefined) + CC(Nc1ccc2c(c1)OCCn1cc(N3C(=O)OCC3C(F)F)nc1-2)C(N)=O', '883617-216-R-J1-PDC tumor spheroids, viability', 84.8),
  ('CC1(C)CCC(CN2CCN(c3ccc(C(=O)NS(=O)(=O)c4ccc(NCC5CCOCC5)c([N+](=O)[O-])c4)c(Oc4cnc5[nH]ccc5c4)c3)CC2)=C(c2ccc(Cl)cc2)C1 + COc1c(OCCCN2CCOCC2)ccc2c3n(c(=NC(=O)c4cnc(N)nc4)nc12)CCN3', '883617-216-R-J1-PDC tumor spheroids, viability', 77.5);

* * *

# Tested on: 883617-216-R-J1-PDC tumor spheroids, viability
# METHOD_SUMMARY: Anticancer human tumor 883617-216-R-J1-PDC cell line growth inhibition [PI3K];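 also: spheroids exposed to agents for 7 days before the viability read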
# MEASUREMENT_PARAMETERS: second compound 0.00316 µM; first compound 3.16 µM; stronger effect = lower value; spheroids with HUVEC and MSC
READOUT_TYPE: viability, T/C (%)

INSERT INTO measurements (compound, readout_type, recorded_measurement) VALUES
  ('Cn1ncc(Cl)c1-c1cc(C(=O)NC(CN)Cc2cccc(F)c2)sc1Cl (stereo not given) + COc1c(OCCCN2CCOCC2)ccc2c3n(c(=NC(=O)c4cnc(N)nc4)nc12)CCN3', 'viability, T/C', 13.9),
  ('CC1(C)CCC(CN2CCN(c3ccc(C(=O)NS(=O)(=O)c4ccc(NCC5CCOCC5)c([N+](=O)[O-])c4)c(Oc4cnc5[nH]ccc5c4)c3)CC2)=C(c2ccc(Cl)cc2)C1 + COc1c(OCCCN2CCOCC2)ccc2c3n(c(=NC(=O)c4cnc(N)nc4)nc12)CCN3', 'viability, T/C', 82.7),
  ('Cn1nccc1Nc1nccc(-c2ccn(C(CO)c3ccc(Cl)c(F)c3)c(=O)c2)n1 (stereo not given) + COc1c(OCCCN2CCOCC2)ccc2c3n(c(=NC(=O)c4cnc(N)nc4)nc12)CCN3', 'viability, T/C', 47.9),
  ('CC1(C)CCC(CN2CCN(c3ccc(C(=O)NS(=O)(=O)c4ccc(NCC5CCOCC5)c([N+](=O)[O-])c4)c(Oc4cnc5[nH]ccc5c4)c3)CC2)=C(c2ccc(Cl)cc2)C1 + CC(Nc1ccc2c(c1)OCCn1cc(N3C(=O)OCC3C(F)F)nc1-2)C(N)=O', 'viability, T/C', 90.2),
  ('Cn1ncc(Cl)c1-c1cc(C(=O)NC(CN)Cc2cccc(F)c2)sc1Cl (stereo not given) + CC(Nc1ccc2c(c1)OCCn1cc(N3C(=O)OCC3C(F)F)nc1-2)C(N)=O', 'viability, T/C', 10.6);
